Data provenance is ChEMBL document CHEMBL1828532.

- Procedure text: Lipophilicity, log P of the compound
- Format: physicochemical
- Cond: octanol/water
Exercise: state measured logP for each of the molecules provided.
Write no unit; give the number alone.

Lab note: measured logP of c1ccc2c(c1)N[C@@H](c1ccc3oc4ccccc4c3c1)[C@H]1CCCO[C@@H]21 (relative stereo) was 3.92

// sample Fc1ccc2c(c1)[C@@H]1OCCC[C@@H]1[C@@H](c1ccc3oc4ccccc4c3c1)N2 (relative stereo) , its logP was 4.09

Reported logP ( Cn1c2ccccc2c2cc([C@H]3Nc4ccc(Cl)cc4[C@@H]4OCCC[C@H]34)ccc21 (relative stereo) ) = 4.65

Cn1c2ccccc2c2cc([C@H]3Nc4ccc(F)cc4[C@@H]4OCCC[C@H]34)ccc21 yielded logP of 4.25

So for Cc1ccc2c(c1)[C@@H]1OCCC[C@@H]1[C@H](c1ccc3c(c1)c1ccccc1n3C)N2 (relative stereo) , the logged logP turned out to be 4.58

The reported value for Cn1c2ccccc2c2cc([C@H]3Nc4ccccc4[C@@H]4OCCC[C@H]34)ccc21 (relative stereo) in terms of logP is 4.1

logP recorded for this molecule, COc1ccc2c(c1)[C@@H]1OCCC[C@@H]1[C@H](c1ccc3oc4ccccc4c3c1)N2 (relative stereo) , is 3.81

Notebook: c1ccc2c(c1)N[C@H](c1ccc3oc4ccccc4c3c1)[C@H]1CCCO[C@@H]21 (relative stereo) , logP read as 3.92

Form: molecule = Cc1ccc2c(c1)[C@@H]1OCCC[C@@H]1[C@@H](c1ccc3oc4ccccc4c3c1)N2 (relative stereo) ; logP = 4.42

Looking up Cc1ccc2c(c1)[C@@H]1OCCC[C@@H]1[C@@H](c1ccc3c(c1)c1ccccc1n3C)N2 (relative stereo) , I see its logP listed as 4.58

logP recorded for this molecule, Cn1c2ccccc2c2cc([C@@H]3Nc4ccc(Br)cc4[C@@H]4OCCC[C@H]34)ccc21 (relative stereo) , is 4.93

Documented logP of Clc1ccc2c(c1)[C@@H]1OCCC[C@@H]1[C@@H](c1ccc3oc4ccccc4c3c1)N2 (relative stereo) : 4.49

For this molecule ( Cn1c2ccccc2c2cc([C@H]3Nc4ccc(Br)cc4[C@@H]4OCCC[C@H]34)ccc21 (relative stereo) ), measured logP is 4.93

The recorded logP for Cn1c2ccccc2c2cc([C@@H]3Nc4ccc(F)cc4[C@@H]4OCCC[C@H]34)ccc21 (relative stereo) is 4.25

Field logP (entry Cn1c2ccccc2c2cc([C@@H]3Nc4ccc(Cl)cc4[C@@H]4OCCC[C@H]34)ccc21 (relative stereo) ) reads 4.65
